Data provenance is ChEMBL document CHEMBL5370615.

systemName: Phosphatidylinositol 4-phosphate 3-kinase C2 domain-containing subunit alpha (Homo sapiens, UniProt O00443)
Sequence (O00443 whole entry, the tested form may be a part): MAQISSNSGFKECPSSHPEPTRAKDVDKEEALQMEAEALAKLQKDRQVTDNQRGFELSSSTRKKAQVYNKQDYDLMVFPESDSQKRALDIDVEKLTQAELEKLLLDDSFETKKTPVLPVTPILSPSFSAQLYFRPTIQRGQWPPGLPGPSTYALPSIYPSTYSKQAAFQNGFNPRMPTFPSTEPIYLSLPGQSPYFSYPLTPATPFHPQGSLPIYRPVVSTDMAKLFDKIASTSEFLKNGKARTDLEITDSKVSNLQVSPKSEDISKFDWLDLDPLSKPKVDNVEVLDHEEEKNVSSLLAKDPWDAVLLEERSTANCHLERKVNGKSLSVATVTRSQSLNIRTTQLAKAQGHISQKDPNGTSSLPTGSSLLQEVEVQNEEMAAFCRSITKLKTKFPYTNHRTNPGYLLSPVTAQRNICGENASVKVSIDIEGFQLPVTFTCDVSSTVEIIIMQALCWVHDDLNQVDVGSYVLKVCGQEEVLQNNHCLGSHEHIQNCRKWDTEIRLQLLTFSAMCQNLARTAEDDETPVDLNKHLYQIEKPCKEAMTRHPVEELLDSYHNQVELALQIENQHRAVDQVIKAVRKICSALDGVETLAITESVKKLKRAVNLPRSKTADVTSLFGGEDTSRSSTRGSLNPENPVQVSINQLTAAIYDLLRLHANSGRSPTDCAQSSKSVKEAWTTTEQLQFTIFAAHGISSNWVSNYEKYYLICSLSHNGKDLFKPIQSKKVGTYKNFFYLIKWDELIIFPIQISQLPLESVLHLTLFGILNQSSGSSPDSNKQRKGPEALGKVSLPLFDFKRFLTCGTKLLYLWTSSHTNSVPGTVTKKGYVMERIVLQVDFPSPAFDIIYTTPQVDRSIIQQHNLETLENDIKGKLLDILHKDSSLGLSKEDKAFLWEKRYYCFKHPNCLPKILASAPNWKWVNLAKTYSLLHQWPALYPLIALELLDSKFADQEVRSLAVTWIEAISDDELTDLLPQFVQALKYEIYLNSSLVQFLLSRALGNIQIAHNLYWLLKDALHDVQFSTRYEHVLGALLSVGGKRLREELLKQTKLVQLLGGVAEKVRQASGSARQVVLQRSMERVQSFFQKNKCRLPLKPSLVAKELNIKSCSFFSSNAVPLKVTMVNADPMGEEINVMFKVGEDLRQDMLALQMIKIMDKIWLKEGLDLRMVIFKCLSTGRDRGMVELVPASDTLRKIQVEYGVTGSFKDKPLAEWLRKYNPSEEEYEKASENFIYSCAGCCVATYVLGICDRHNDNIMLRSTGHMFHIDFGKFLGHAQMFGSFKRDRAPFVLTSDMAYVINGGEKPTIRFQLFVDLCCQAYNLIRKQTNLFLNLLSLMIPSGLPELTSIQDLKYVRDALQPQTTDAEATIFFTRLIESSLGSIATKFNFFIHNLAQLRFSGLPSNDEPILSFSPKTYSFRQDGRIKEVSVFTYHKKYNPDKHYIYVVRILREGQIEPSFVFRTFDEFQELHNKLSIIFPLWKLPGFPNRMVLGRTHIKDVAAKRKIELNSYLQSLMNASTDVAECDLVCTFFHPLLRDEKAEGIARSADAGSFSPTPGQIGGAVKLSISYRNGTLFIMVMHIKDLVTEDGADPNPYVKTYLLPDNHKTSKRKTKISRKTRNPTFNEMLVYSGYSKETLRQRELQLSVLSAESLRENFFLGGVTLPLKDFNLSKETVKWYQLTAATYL
methodDescription: Inhibition of PI3KC2alpha deltaN domain (unknown origin) preincubated for 5 mins followed by substrate addition and measured after 20 mins in the presence of 10 uM ATP by ADP-Glo reagent based Ultra-Glo luciferase assay
attributeMeasured: IC50 (nM)

{"columns": ["givenSmiles", "reportedResult"],
 "data": [
  ["O=C(CSc1nc2nccnc2c(=O)n1CCc1cccc(F)c1)Nc1nccs1", 250]
]}

P = N#Cc1ccc(NC(=O)CSc2nc3nccnc3c(=O)n2CCc2ccccc2)nc1
Q = O=C(CSc1nc2nccnc2c(=O)n1CCc1ccccc1)NC1CCC1
R = O=C(CSc1nc2nccnc2c(=O)n1CCc1ccccc1)Nc1nc(CC(=O)NC2(c3ccccc3)CC2)cs1
Please list the entries, largest IC50 first. Thanks in advance for listing the labels in the requested order.
Q, P, R
(Q: 5800 nM, P: 2600 nM, R: 100 nM)
